pKi: −log10 of the molar value. Counter-ions that a name gives are not always drawn.
Consider the following pKi values measured on human norepinephrine transporter (Homo sapiens).
Sequence (P23975 whole entry): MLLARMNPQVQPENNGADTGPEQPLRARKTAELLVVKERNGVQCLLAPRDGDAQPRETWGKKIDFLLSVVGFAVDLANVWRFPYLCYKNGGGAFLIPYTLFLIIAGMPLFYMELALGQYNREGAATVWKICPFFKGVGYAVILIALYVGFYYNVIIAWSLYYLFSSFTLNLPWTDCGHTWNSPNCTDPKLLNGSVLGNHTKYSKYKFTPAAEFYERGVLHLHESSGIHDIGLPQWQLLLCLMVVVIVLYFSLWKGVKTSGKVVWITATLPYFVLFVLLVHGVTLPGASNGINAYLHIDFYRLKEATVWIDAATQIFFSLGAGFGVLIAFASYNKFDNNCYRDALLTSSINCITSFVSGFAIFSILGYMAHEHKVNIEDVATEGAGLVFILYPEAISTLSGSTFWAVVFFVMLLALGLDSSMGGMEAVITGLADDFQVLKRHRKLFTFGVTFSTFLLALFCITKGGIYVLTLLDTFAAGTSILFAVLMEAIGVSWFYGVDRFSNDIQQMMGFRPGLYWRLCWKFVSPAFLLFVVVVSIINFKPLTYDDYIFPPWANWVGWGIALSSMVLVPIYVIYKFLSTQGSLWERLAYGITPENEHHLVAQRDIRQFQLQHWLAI

{"compound": "O=c1c(N2CCNCC2)nc2ccccc2n1-c1ccccc1F [Example 3, Hydrochloride]", "measurement target": "human norepinephrine transporter (Homo sapiens)", "pKi": 7.96}
{"compound": "Cc1ccc(-n2c(=O)c(N3CCNCC3)nc3ccccc32)cc1 [Example 7, Maleate]", "measurement target": "human norepinephrine transporter (Homo sapiens)", "pKi": 7.44}
{"compound": "O=c1c(N2CCCNCC2)nc2ccccc2n1-c1ccccc1Cl [Example 11, Maleate]", "measurement target": "human norepinephrine transporter (Homo sapiens)", "pKi": 7.39}
{"compound": "Cc1ccccc1-n1c(=O)c(N2CCNCC2)nc2ccccc21 [Example 5]", "measurement target": "human norepinephrine transporter (Homo sapiens)", "pKi": 7.16}
{"compound": "O=c1c(N2CCNCC2)nc2ccccc2n1-c1cccc(F)c1 [Example 6]", "measurement target": "human norepinephrine transporter (Homo sapiens)", "pKi": 7.42}
{"compound": "CC(C)n1c(=O)c(N2CCCNCC2)nc2ccccc21 [Example 15, Maleate]", "measurement target": "human norepinephrine transporter (Homo sapiens)", "pKi": 7.15}
{"compound": "O=c1c(N2CCCNCC2)nc2cc(F)ccc2n1-c1ccccc1 [Example 14]", "measurement target": "human norepinephrine transporter (Homo sapiens)", "pKi": 7.57}
{"compound": "O=c1c(N2CCCNCC2)nc2ccccc2n1-c1cccc(F)c1 [Example 12]", "measurement target": "human norepinephrine transporter (Homo sapiens)", "pKi": 7.22}
{"compound": "Cc1ccc(-n2c(=O)c(N3CCCNCC3)nc3ccccc32)cc1 [Example 13, Maleate]", "measurement target": "human norepinephrine transporter (Homo sapiens)", "pKi": 7.01}
{"compound": "O=c1c(N2CCNCC2)nc2cc(F)ccc2n1-c1c(F)cccc1F [Example 10]", "measurement target": "human norepinephrine transporter (Homo sapiens)", "pKi": 7.82}
{"compound": "O=c1c(N2CCNCC2)nc2ccccc2n1-c1ccccc1 [Example 2, Hydrochloride]", "measurement target": "human norepinephrine transporter (Homo sapiens)", "pKi": 7.68}

---

Counter-ions that a name gives are not always drawn.
Measured melting point, listed per entry for reference.

{"compound": "O=c1c(N2CCCNCC2)nc2cc(F)ccc2n1-c1ccccc1", "melting point": "151 to 152 °C"}
{"compound": "O=c1c(N2CCNCC2)nc2ccccc2n1-c1ccccc1 (as salt: hydrochloride)", "melting point": "290 to 292 °C"}
{"compound": "O=c1c(N2CCNCC2)nc2ccccc2n1-c1cccc(F)c1", "melting point": "149 to 150 °C"}
{"compound": "Cc1ccccc1-n1c(=O)c(N2CCNCC2)nc2ccccc21", "melting point": "151 to 153 °C"}
{"compound": "Cc1ccc(-n2c(=O)c(N3CCNCC3)nc3ccccc32)cc1 (as salt: maleate)", "melting point": "197 to 199 °C"}
{"compound": "O=c1c(N2CCNCC2)nc2cc(F)ccc2n1-c1ccccc1", "melting point": "150 to 152 °C"}
{"compound": "O=c1c(N2CCNCC2)nc2cc(F)ccc2n1-c1c(F)cccc1F", "melting point": "146 to 147 °C"}
{"compound": "Cc1ccc(-n2c(=O)c(N3CCCNCC3)nc3ccccc32)cc1 (as salt: maleate)", "melting point": "199 to 200 °C"}
{"compound": "O=c1c(N2CCCNCC2)nc2ccccc2n1-c1cccc(F)c1", "melting point": "128 to 129 °C"}
{"compound": "O=c1c(N2CCNCC2)nc2ccccc2n1-c1ccccc1F (as salt: hydrochloride)", "melting point": "261 to 263 °C"}
{"compound": "CC(C)n1c(=O)c(N2CCCNCC2)nc2ccccc21 (as salt: maleate)", "melting point": "147 to 149 °C"}
{"compound": "O=c1c(N2CCCNCC2)nc2ccccc2n1-c1ccccc1Cl (as salt: maleate)", "melting point": "159 to 161 °C"}
{"compound": "Cc1ccc2nc(N3CCNCC3)c(=O)n(-c3ccccc3)c2c1", "melting point": "166 to 168 °C"}
{"compound": "O=c1c(N2CCNCC2)nc2ccccc2n1-c1ccccc1Cl", "melting point": "135 to 137 °C"}
{"compound": "O=c1c(N2CCNCC2)nc2ccc(F)cc2n1-c1ccccc1", "melting point": "142 to 143 °C"}

Cited source for all entries: patent US20060030566A1
